Assignment: determine reported log10 Kd for the given binders.
- tested_system: T1, human PDGFRB on LX-2 cells (human, UniProt P09619)
- T1 construct: full-length receptor on the cell surface; The list has human PDGFRB only on SCC VII cells
- T1 sequence (P09619 33-1106 limits assumed): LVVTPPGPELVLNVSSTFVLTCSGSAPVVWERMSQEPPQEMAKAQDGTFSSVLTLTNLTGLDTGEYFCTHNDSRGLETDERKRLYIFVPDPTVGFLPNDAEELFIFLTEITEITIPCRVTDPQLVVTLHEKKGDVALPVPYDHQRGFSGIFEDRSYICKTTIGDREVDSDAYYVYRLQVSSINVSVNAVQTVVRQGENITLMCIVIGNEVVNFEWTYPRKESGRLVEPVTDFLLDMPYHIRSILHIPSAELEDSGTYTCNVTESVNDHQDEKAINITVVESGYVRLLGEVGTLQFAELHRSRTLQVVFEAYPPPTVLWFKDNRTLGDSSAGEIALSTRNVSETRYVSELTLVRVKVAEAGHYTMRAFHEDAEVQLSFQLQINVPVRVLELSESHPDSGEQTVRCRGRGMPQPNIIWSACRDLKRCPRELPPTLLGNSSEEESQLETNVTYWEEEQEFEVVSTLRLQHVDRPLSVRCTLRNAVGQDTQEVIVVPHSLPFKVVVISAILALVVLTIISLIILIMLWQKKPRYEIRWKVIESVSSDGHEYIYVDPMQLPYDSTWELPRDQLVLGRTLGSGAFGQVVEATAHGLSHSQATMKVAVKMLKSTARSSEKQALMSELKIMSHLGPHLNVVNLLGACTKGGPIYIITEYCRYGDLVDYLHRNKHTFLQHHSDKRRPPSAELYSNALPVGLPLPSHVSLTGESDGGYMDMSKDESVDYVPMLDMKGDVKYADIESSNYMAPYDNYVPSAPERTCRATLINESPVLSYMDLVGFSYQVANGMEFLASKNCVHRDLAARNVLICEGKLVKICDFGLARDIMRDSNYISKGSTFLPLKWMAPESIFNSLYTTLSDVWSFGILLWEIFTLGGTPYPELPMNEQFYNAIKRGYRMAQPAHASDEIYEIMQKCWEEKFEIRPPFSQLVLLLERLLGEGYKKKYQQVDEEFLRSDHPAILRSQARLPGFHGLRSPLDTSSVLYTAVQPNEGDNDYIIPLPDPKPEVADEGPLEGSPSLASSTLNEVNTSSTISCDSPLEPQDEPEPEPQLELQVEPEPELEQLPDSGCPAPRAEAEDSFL
- test_method_notes: binding assay on the human hepatic stellate cell line LX-2 (Example 4)
Reminder: these figures are log10 of reported Kd, in nM before transformation.

Given the binder SP20P (VHH, Llama VHH; on phage in the phage ELISA) VHH: EVQLVESGGGLVQAGGSLRLSCVISGRTSPTYPMGWFRQSPGNEREFVASINWSGGWRNYADSVKDRFTISRDDAKNTVYLQMNSLKPEDTAVYYCARGQYSSGTPVYAHEYAYWGQGTQVTVSS , what is its reported log10 Kd?
1.73

Given the binder SP02P (VHH, Llama VHH; on phage in the phage ELISA) VHH: EVQLVESGGGLVQAGGSLRLSCAASESISSIEQMGWFRQAPGKQRALVAINTYGGRTVYTNSVEGRFTMSRDSAKNMVYLQMTSLEPEDTAVYYCYAQTTAWRGGVWGQGTQVTVSS , what is its reported log10 Kd?
0.83

Given the binder SP05P (VHH, Llama VHH; on phage in the phage ELISA) VHH: EVQLVESGGGLVQAGGSLRLSCAASGRTSFSGYAMAWFRQAPGKERDFVASITWSYGYTYYTDSAQGRFTISRDSAKNTVYLEMNSLKPEDTAVYYCAADPKASRFRILREYAYWGQGTQVTVSS , what is its reported log10 Kd?
2.29

Given the binder SP14P (VHH, Llama VHH; on phage in the phage ELISA) VHH: EVQLVESGGGLVQAGDSLRLSCVVSGLTFSRYGMGWFRQATGKEREFVGGISVGSSGTMYPNSVKGRFTISRDNAKSTVYLQMNSLKPEDTAVYFCAAIDQGSFVQQRDYRYWGQGTQVTVSS , what is its reported log10 Kd?
0.49

Given the binder SP12P (VHH, Llama VHH; on phage in the phage ELISA) VHH: EVQLVESGGGLVQAGGSLRLSCVISGRTSPTYPMGWFRQSPGNEREFVASINWSGGWRNYADSVKGRFTISRDDAKNTVYLQMNSLKPEDTAVYYCARGQYSSGTPVYAHEYAYWGQGTQVTVSS , what is its reported log10 Kd?
-0.22

Given the binder SP08P (VHH, Llama VHH; on phage in the phage ELISA) VHH: EVQLVESGGGLVQAGGSLRLSCAASGRTFNGYAMAWFRQAPGKERDFVASITWSYGYTYYADSAQGRFTISRDSAKNTVYLEMNSLKPEDTAVYYCAADPKASRFRILRQYAHWGQGTQVTVSS , what is its reported log10 Kd?
1.78
